# Tested on: PC-3 prostate
# Protocol Summary: NCI-60 one-dose screen, 48 h
# Cond: 10 µM unless noted
The panel holds about 83,000 compounds, 20% with a hit somewhere; the sample as a whole holds those more often. Calls of active or inactive are those of the source. How the source made its calls: active means growth percent below 10; inactive means the rest.
Choose one outcome from this list and give only that: active, inactive

Ask: Test call for this molecule, please: Cc1ccc(Oc2nc3ccccc3cc2-c2nnc(Cn3c(COc4ccccc4)nc4ccccc43)o2)cc1
Reply: inactive

Ask: Test call for this molecule, please: O=C1Nc2cc(Cl)ccc2Oc2cc(Oc3ccccc3)ccc21
Reply: inactive

Ask: Test call for this molecule, please: CC(=O)Oc1cccc(OC(C)=O)c1OC(C)=O
Reply: inactive

Ask: Test call for this molecule, please: CCCS(=O)(=O)c1nc(NC2CC2)cc(-c2ccc3c(ccn3C3CC(C)(C)NC(C)(C)C3)c2)n1
Reply: inactive

Ask: Test call for this molecule, please: COc1ccc(/C=C2\C(=O)N(C(=O)c3csc(NC(C)=O)n3)N=C2C)cc1
Reply: inactive

Ask: Test call for this molecule, please: CS(=O)(=O)N(c1cc(-c2ccc3ncnc(Nc4cccc(Cl)c4)c3c2)cnc1Cl)S(C)(=O)=O
Reply: inactive

Ask: Test call for this molecule, please: Cc1ccc2c(c1)C(=O)C(c1c(-c3[nH]c(=O)c4ccc(C)cc4c3O)c(O)c3ccccc3c1O)=NC2=O
Reply: active

Ask: Test call for this molecule, please: COc1ccc(NC(=O)CSc2nc3ccccc3c(=O)n2Cc2cc(OC)c(OC)c(OC)c2)cc1
Reply: inactive

Ask: Test call for this molecule, please: CC(=O)/C=C/c1cc2cc(Cl)ccc2[nH]c1=O
Reply: inactive

Ask: Test call for this molecule, please: CN(C)c1ncc(-c2ccc(C(F)(F)F)cc2)c(NC2CCCCCC2)n1
Reply: inactive

Ask: Test call for this molecule, please: NC(=O)c1c(NC(=O)c2ccc3c(c2)OCO3)sc2c1CCC(=O)C2
Reply: active

Ask: Test call for this molecule, please: CC(=O)Nc1nc(C(=O)N2N=C(C)/C(=C/c3ccccc3)C2=O)cs1
Reply: inactive

Ask: Test call for this molecule, please: CCN(Cc1ccc(CN(CC)C(=O)C(Cl)(Cl)Cl)cc1)C(=O)C(Cl)(Cl)Cl
Reply: inactive

Ask: Test call for this molecule, please: O=C(CCl)NCCNc1nccc(Nc2ccc(S(=O)(=O)Nc3ccccn3)cc2)n1
Reply: inactive

Ask: Test call for this molecule, please: O=C(Nc1ccc(OCc2nnc(-c3ccc(Cl)cc3)o2)c(F)c1)Nc1ccc(Cl)c(Cl)c1
Reply: inactive

Ask: Test call for this molecule, please: Nc1ccccc1C#C/C=C\C#Cc1cccc(O)c1
Reply: inactive

Ask: Test call for this molecule, please: Nc1c(C(=O)Nc2ccccc2)sc2nc3c(cc12)CN(Cc1ccccc1)CC3
Reply: inactive

Ask: Test call for this molecule, please: CC(=O)Nc1nc(C(=O)N2N=C(C)/C(=C/c3cccs3)C2=O)cs1
Reply: inactive

Ask: Test call for this molecule, please: CCN(Cc1ccccc1)c1ccc(SC#N)cc1
Reply: inactive

Ask: Test call for this molecule, please: CC(C)(C)c1cn2cccc(C(=O)N3CCN(CC(=O)Nc4ccc(Cl)cc4C(=O)c4ccccc4Cl)CC3)c2n1
Reply: inactive

Ask: Test call for this molecule, please: Oc1ccc(N=Cc2ccccc2)cc1
Reply: inactive

Ask: Test call for this molecule, please: OC1CC2c3ccccc3C1c1ccccc12 (configuration not stated)
Reply: inactive

Ask: Test call for this molecule, please: COc1ccc(/C=C2\CCCC3=C2NC(C)=NC3c2ccc(OC)c(OC)c2)cc1OC (configuration not stated)
Reply: inactive

Ask: Test call for this molecule, please: O=C1CCCCN1CCCCC#Cc1ccccc1C#Cc1ccccn1
Reply: inactive

Ask: Test call for this molecule, please: COc1ccccc1CNCCCN1C(=O)c2ccc3c4c(ccc(c24)C1=O)C(=O)N(CCCNCCCCNCCCCN)C3=O
Reply: active

Ask: Test call for this molecule, please: C/C(=N\NC(=O)CC#N)c1cc2cc(Cl)ccc2o1
Reply: inactive

Ask: Test call for this molecule, please: N#CC1=C(N)n2nc(-c3ccncc3)nc2NC1c1cccc2ccccc12 (configuration not stated)
Reply: inactive

Ask: Test call for this molecule, please: C=C1C(=O)O[C@H]2[C@H]1CC/C(Cn1cc(-c3ccc(N)cc3)nn1)=C\CC[C@@]1(C)O[C@@H]21
Reply: inactive

Ask: Test call for this molecule, please: COC(=O)[C@H]1[C@H](OC)[C@@H](OC(=O)/C=C/c2ccncc2)CC2CN3CCc4c([nH]c5cc(OC)ccc45)[C@@H]3C[C@@H]21 (some centres not stated)
Reply: inactive

Ask: Test call for this molecule, please: COc1ccc(S(=O)(=O)NCCNc2nccc(-c3c(-c4ccccc4)nc4sccn34)n2)cc1
Reply: inactive

Ask: Test call for this molecule, please: COc1ccc(C2SCC(=O)N2NC(=O)c2ccc(NC(=O)c3ccccn3)cc2)cc1OC (configuration not stated)
Reply: inactive

Ask: Test call for this molecule, please: COc1ccc(C2CC(c3cccs3)=NN2c2ccc(S(=O)(=O)NC(=O)NCc3cccc(OC)c3)cc2)cc1 (configuration not stated)
Reply: inactive

Ask: Test call for this molecule, please: CCC#CC[C@H]1C/C=C2/C(=O)C=C[C@@H]2C/C=C\CCCC(=O)O1
Reply: active

Ask: Test call for this molecule, please: O=C(Nc1ccc(Br)c(Cl)c1)c1cc(F)ccc1O
Reply: active

Ask: Test call for this molecule, please: C=C1C(=O)O[C@H]2[C@H]1CC/C(COC(=O)NCCc1cccc(OC)c1)=C\CC[C@@]1(C)O[C@@H]21
Reply: inactive

Ask: Test call for this molecule, please: CCSc1nnc(NC(=O)Cc2ccc(Cl)cc2)s1
Reply: inactive

Ask: Test call for this molecule, please: CCN1C(=O)N(CC)C2C1NN=c1s/c(=C3\C(=O)N(C4CCCC4)c4ccccc43)c(=O)n12 (configuration not stated)
Reply: inactive

Attribution: PubChem BioAssay (NCI)
